Test system: human SMAD7 mRNA
Assay: Antisense inhibition of human SMAD7 mRNA expression in Hep3B cells by 3-10-3 cEt gapmers, 10,000 nM, electroporation (Example 2)
Format: cell-based
Conditions: Hep3B cells, electroporation with 10,000 nM antisense oligonucleotide, approximately 24 hours, primer probe set RTS5062, relative to untreated control cells
Protocol: Antisense oligonucleotides were designed to target human SMAD7 mRNA and were tested for their effects on SMAD7 mRNA expression in vitro. […] After a treatment period of approximately 24 hours, RNA was isolated from the cells and SMAD7 mRNA levels were measured by quantitative real-time PCR. […] SMAD7 mRNA levels were adjusted according to total RNA content, as measured by RIBOGREEN®. […]
Strand notation (5' to 3'): a small letter for the sugar, then the base; units joined by * are phosphorothioate-linked, units joined directly phosphodiester-linked; [ ] holds rarer units or linkages, { } end groups; capitals alone tell only the bases. e = 2'-O-(2-methoxyethyl) (MOE); k = constrained ethyl (cEt); [5mC] = 5-methylcytosine; d = 2'-deoxy (DNA)
Each record gets a class by % Inhibition: I = under 20%, II = from 20% up to 40%, III = 40% and over

[[record]]
substance = "798998 (antisense k[5mC]*kG*k[5mC]*dA*d[5mC]*dA*d[5mC]*dT*d[5mC]*dA*d[5mC]*dA*d[5mC]*kT*k[5mC]*kA) [compound 798998]"
class_name = "I"

[[record]]
substance = "799118 (antisense kA*kG*kA*dG*d[5mC]*dT*dT*dA*dA*d[5mC]*dA*d[5mC]*dA*k[5mC]*kA*kG) [compound 799118]"
class_name = "III"

[[record]]
substance = "798937 (antisense kG*kT*kT*dT*dG*d[5mC]*dA*dT*dG*dA*dA*dA*dA*kG*k[5mC]*kA) [compound 798937]"
class_name = "II"

[[record]]
substance = "799098 (antisense kA*kA*kA*dA*d[5mC]*d[5mC]*dT*dG*dA*dT*dG*dT*d[5mC]*kA*k[5mC]*k[5mC]) [compound 799098]"
class_name = "II"

[[record]]
substance = "798961 (antisense kA*kA*kA*dA*d[5mC]*d[5mC]*d[5mC]*d[5mC]*d[5mC]*dA*dA*d[5mC]*dA*kA*kT*kT) [compound 798961]"
class_name = "I"

[[record]]
substance = "799095 (antisense kA*k[5mC]*k[5mC]*dT*dG*dA*dT*dG*dT*d[5mC]*dA*d[5mC]*d[5mC]*kA*kG*kG) [compound 799095]"
class_name = "I"

[[record]]
substance = "799160 (antisense kA*k[5mC]*kG*dA*dG*dT*dG*dT*dA*dT*dG*dA*dG*kT*kT*kG) [compound 799160]"
class_name = "III"

[[record]]
substance = "798976 (antisense kT*kG*kG*dA*dT*dT*dT*d[5mC]*dT*dG*d[5mC]*dT*dT*k[5mC]*k[5mC]*k[5mC]) [compound 798976]"
class_name = "I"

[[record]]
substance = "799219 (kT*kG*kG*d[5mC]*dA*dT*dT*dT*dG*dT*dT*dA*dT*kT*kT*kG; antisense) [compound 799219]"
class_name = "I"

[[record]]
substance = "799141 (antisense kT*kT*kA*dT*dG*dA*d[5mC]*dG*dG*dA*d[5mC]*d[5mC]*dA*kA*kA*kT) [compound 799141]"
class_name = "III"

[[record]]
substance = "799061 (antisense kT*kT*k[5mC]*dG*dG*d[5mC]*d[5mC]*dA*d[5mC]*dT*dA*dG*d[5mC]*kA*kG*kG) [compound 799061]"
class_name = "III"

[[record]]
substance = "798959 (antisense k[5mC]*k[5mC]*k[5mC]*dA*dA*d[5mC]*dA*dA*dT*dT*d[5mC]*dT*dT*kT*kT*k[5mC]) [compound 798959]"
class_name = "II"

[[record]]
substance = "799135 (antisense kG*kG*kG*dA*d[5mC]*dT*dG*d[5mC]*dT*dA*dA*dG*d[5mC]*kA*kT*kG) [compound 799135]"
class_name = "II"

[[record]]
substance = "771576 (antisense eG*eG*eG*e[5mC]*eA*dG*dG*dA*dG*dA*dG*dA*d[5mC]*dA*d[5mC]*e[5mC]*eG*e[5mC]*eT*eT) [compound 771576]"
class_name = "III"

[[record]]
substance = "798999 (antisense k[5mC]*k[5mC]*kG*d[5mC]*dA*d[5mC]*dA*d[5mC]*dT*d[5mC]*dA*d[5mC]*dA*k[5mC]*kT*k[5mC]) [compound 798999]"
class_name = "I"

[[record]]
substance = "799039 (kT*kG*k[5mC]*dT*dG*dG*dG*dA*d[5mC]*d[5mC]*d[5mC]*d[5mC]*dA*kG*k[5mC]*k[5mC]; antisense) [compound 799039]"
class_name = "I"

[[record]]
substance = "799094 (antisense kT*kG*kA*dT*dG*dT*d[5mC]*dA*d[5mC]*d[5mC]*dA*dG*dG*kG*k[5mC]*kA) [compound 799094]"
class_name = "III"

[[record]]
substance = "798996 (antisense k[5mC]*kA*k[5mC]*dA*d[5mC]*dT*d[5mC]*dA*d[5mC]*dA*d[5mC]*dT*d[5mC]*kA*k[5mC]*kA) [compound 798996]"
class_name = "III"

[[record]]
substance = "799042 (kT*kG*k[5mC]*dT*d[5mC]*d[5mC]*dT*dG*dG*d[5mC]*dA*dG*d[5mC]*kT*kG*k[5mC]; antisense) [compound 799042]"
class_name = "II"

[[record]]
substance = "799226 (kA*kA*kA*dA*d[5mC]*dA*d[5mC]*d[5mC]*dA*dA*dT*d[5mC]*dT*kT*kG*kT; antisense) [compound 799226]"
class_name = "I"

[[record]]
substance = "799053 (antisense kA*kG*k[5mC]*d[5mC]*dT*dG*dT*dG*dG*dA*d[5mC]*dA*dG*kG*k[5mC]*k[5mC]) [compound 799053]"
class_name = "I"

[[record]]
substance = "799056 (antisense k[5mC]*kG*k[5mC]*dT*dG*d[5mC]*dT*d[5mC]*dA*dG*dA*dA*dG*k[5mC]*k[5mC]*kT) [compound 799056]"
class_name = "II"

[[record]]
substance = "799100 (antisense kG*kA*kA*dA*dA*dA*d[5mC]*d[5mC]*dT*dG*dA*dT*dG*kT*k[5mC]*kA) [compound 799100]"
class_name = "II"


The measured values listed here are drawn from patent US10517889B2.
